# System: DU145 human prostate cancer cells
# ASSAY PROCEDURE: MTS viability assay in DU145 human prostate cancer cells
# RECORDED CONDITIONS: Homo sapiens, DU-145, 48 h, read-out: IC50 (cell viability)
ASSAY METRIC: IC50 (µM)
Your answer is read as µM, so omit the unit and give the number.

Suppose we examine the molecule CN(C)c1nc2c([nH]1)c(C(=N)c1c[nH]c3ccccc13)nc1[nH]c3ccccc3c12 [Compound 8] ; what IC50 value has been reported?
1.8
